Data origin: PubChem BioAssay (NCI)

- Tested on: M14 melanoma
- assayRemarks: NCI tumour cell line growth inhibition, 48 h
# reported log10 TGI; entries follow
property: log10 TGI (log10 of the value in µM)

| molecule | log10 TGI |
| --- | --- |
| CCN1CCC(O)(c2ccc(Oc3ccc(Cl)cc3)cc2)C(C(=O)c2ccc(Oc3ccc(Cl)cc3)cc2)C1 (stereo not drawn) | 1.45 |
| Oc1c(Br)cc(/C=C/c2ccnc(/C=C/c3cc(Br)c(O)c(Br)c3)c2)cc1Br | 1.74 |
| O=C1[C@H]2ON(c3ccccc3)C(c3ccc([N+](=O)[O-])cc3)[C@H]2C(=O)N1c1ccc(Cc2ccc(N3C(=O)[C@@H]4ON(c5ccccc5)C(c5ccc([N+](=O)[O-])cc5)[C@@H]4C3=O)cc2)cc1 (stereo partly drawn) | 1.59 |
| Clc1c(Cl)[n+](Cc2ccc3ccccc3c2)cn1Cc1ccc2ccccc2c1 | 0.45 |
| COc1cc(/C=C2\CC3C4CC=C5C[C@@H](OC(C)=O)CC[C@]5(C)C4CC[C@]3(C)C2=O)ccc1OCCN1CCCCC1 (stereo partly drawn) | 0.58 |
| COc1cc(C(=O)NC2CCc3cc(OC)c(OC)c(OC)c3-c3ccc(OC)c(=O)cc32)cc(OC)c1OC (stereo not drawn) | 1.02 |
| COc1cc(/C=C/c2cc(/C=C/c3ccc(O)c(OC)c3)n(C(=O)c3ccc(Cl)cc3)n2)ccc1O | 1.18 |
| CC(=O)Nc1ccc2c(c1)/C(=C\c1ccc([N+](C)(C)C)cc1)c1ccccc1-2 | 1.53 |

* * *

- Test system: HOP-18 NSCLC
- assayRemarks: NCI tumour cell line growth inhibition, 48 h
property: TGI

| molecule | measValue |
| --- | --- |
| COc1cccc2c1c1ccc3c(c1n2C)C(=O)C=CC3=O | 29 µM |
| COc1ccc(Cc2c3cc(O)c(=O)cc-3ccn2C)cc1 | > 100 µM |
| COc1cc2c(c(OC)c1OC)-c1ccc(OC)c(=O)cc1C(NC(=O)COc1ccccc1)CC2 (stereo not drawn) | > 100 µM |

* * *

# reported TGI; entries follow
- Test system: HOP-18 NSCLC
- assayRemarks: NCI tumour cell line growth inhibition, 48 h

| molecule | TGI |
| --- | --- |
| COc1cc(/C=C2\C(=O)N(C(=O)Cc3ccccc3)N=C2C)cc(OC)c1OC | > 100 µM |
| OC12c3ccccc3C1CCCCC2N1CCCC1 (stereo unspecified) | > 100 µM |
| O=C(/C=C\c1ccccc1O)c1ccc(O)cc1O | > 100 µM |
| COc1cc2cc(OC(C)=O)c3cc4c(cc3c2c(OC)c1OC)OCO4 | > 100 µM |
| CC(C)(C)[Si](OC1CCOC1=O)(c1ccccc1)c1ccccc1 (stereo unspecified) | 80.9 µM |
| CN(CCS(=O)(=O)N1C(=O)C2CCCN2C(=O)[C@@H]1Cc1ccccc1)C(=O)OCc1ccccc1 (stereo partly specified) | > 100 µM |

* * *

- System: HOP-92 NSCLC
- assayRemarks: NCI tumour cell line growth inhibition, 48 h; in the data active = GI50 below about 0.43 µM; inactive = the rest
Outcomes: Y = active, N = inactive

| compound | label |
| --- | --- |
| O=C1Nc2c(ccc(Cl)c2Cl)/C1=C/c1cc(Br)c(O)c(Br)c1 | N |
| COc1cc2c(cc1OC(C)C)[C@H](c1ccc(Cl)cc1)N(c1ccc(N(C)CC3CCC(N4CCN(C)C(=O)C4)CC3)cc1)C(=O)C2 (some centres undefined) | N |
| O=C1N[C@@H]2[C@@H](O)[C@@H](O)[C@H](O)C[C@H]2c2cc3c(c(O)c21)OCCO3 | Y |
| CNC(=O)c1ccc(N2C(=S)N(c3cnc(C#N)c(C(F)(F)F)c3)C(=O)C23CCC3)cc1F | N |
| Cc1nn(CNc2ccccc2C(F)(F)F)c(=S)n1/N=C/c1cccc2cccnc12 | N |
| COc1c/c(=C2\C=c3ccccc3=N2)[nH]/c1=C\c1[nH]c(C)cc1C | Y |
| COc1ccc(C2(Cl)c3ccccc3N(c3ccccc3)c3ccccc32)cc1 | N |
| Cc1ccc(O)c(NC(=O)c2cccc(Nc3ccnc(C(F)(F)F)c3)c2)c1 | N |
| O=c1c2c(nc3n1CCS3)[nH]c1cc([N+](=O)[O-])ccc12 | N |

* * *

- System: MALME-3M melanoma
- assayRemarks: NCI tumour cell line growth inhibition, 48 h
# reported TGI; entries follow

| molecule | targetUnderTest | TGI |
| --- | --- | --- |
| Cc1cc2nc(NCCN)n(Cc3ccc(F)c(Cl)c3)c2cc1C | MALME-3M melanoma | 4.19 µM |
| CSc1ncnc2c1ncn2CCC(=O)O | MALME-3M melanoma | > 100 µM |
| O=C(NCCCCN1CCOCC1)c1cc2ccccc2o1 | MALME-3M melanoma | > 100 µM |
| Cc1cc2c(C(=O)NC[C@H](C)c3ccccc3)c(O)c(O)cc2c(O)c1-c1c(C)cc2c(C(=O)NC[C@H](C)c3ccccc3)c(O)c(O)cc2c1O | MALME-3M melanoma | 7.23 µM |
| COc1cc(C2C(Cl)C(=O)N2NC(=O)Cc2ccccc2)cc(Br)c1O (stereo not given) | MALME-3M melanoma | > 100 µM |
| c1ccc2c(CSCc3cccc4ccccc34)cccc2c1 | MALME-3M melanoma | > 100 µM |
| Cc1ccc([N+](=O)[O-])cc1S(=O)(=O)Nc1ccc(C2=NN(S(=O)(=O)c3cc([N+](=O)[O-])ccc3C)C(c3ccccc3)C2)cc1 (stereo not given) | MALME-3M melanoma | 62.8 µM |
| COc1ccc(C(CC2(c3ccc(OC)cc3)SCCCS2)NC(C)=O)cc1 (stereo not given) | MALME-3M melanoma | > 100 µM |
| CCOC(=O)Cc1csc(NC(NC(=O)OCC)(C(=O)OCC)C(F)(F)F)n1 (stereo not given) | MALME-3M melanoma | > 100 µM |
| CC(=O)Nc1ccc2c3c(cc(O)c2c1)N(C(=O)CCCC(=O)N1CC(CCl)c2c1cc(O)c1cc(NC(C)=O)ccc21)CC3CCl (stereo not given) | MALME-3M melanoma | 0.0318 µM |
| CC(C)(C)C(=O)OCOP(=O)(NCc1ccccc1)C1CCCN(O)C1=O (stereo not given) | MALME-3M melanoma | 6.96 µM |
| COC(=O)c1cc2c(=O)n(C)c3ccccc3n2c1C(=O)OC | MALME-3M melanoma | > 100 µM |
| CC(C)C[C@H](NC(=O)CNC(=O)c1cc(Cl)ccc1Cl)B(O)O | MALME-3M melanoma | 0.035 µM |
| NC(=O)C1CCCN1C(=O)C(Cc1cnc[nH]1)NC(=O)C1CCCC1 (stereo not given) | MALME-3M melanoma | > 100 µM |
| CC(=O)c1nc2ccccc2n1C(C)C(=O)c1ccccc1 (stereo not given) | MALME-3M melanoma | > 100 µM |
| CCOC1CN=C(Nc2cccc3ccccc23)S1 (stereo not given) | MALME-3M melanoma | > 10 µM |
| O=C(CSCC(=O)N/N=C/c1ccc2c(c1)OCO2)N/N=C/c1ccc2c(c1)OCO2 | MALME-3M melanoma | > 100 µM |
| COC(=O)[C@]12CC3C=CC1N(C3)C(CBr)c1c2n(S(=O)(=O)c2ccccc2)c2ccccc12 (stereo not given in full) | MALME-3M melanoma | > 100 µM |
| Cc1ccc(C)n1-c1ccccc1C1C=Cn2c(=O)nnc3c(OC(C)C)c(OC(C)C)c(O)c1c32 (stereo not given) | MALME-3M melanoma | 76.5 µM |
| O=C(CCC(=O)Nc1ccc(Cl)c(Cl)c1)Cc1nc2ccccc2o1 | MALME-3M melanoma | > 100 µM |

* * *

# reported GI50; entries follow
- Test system: OVCAR-8 ovarian
- assayRemarks: NCI tumour cell line growth inhibition, 48 h

| molecule | GI50 |
| --- | --- |
| CCc1ccc(Oc2c(-c3ccc(OCc4ccc(Cl)cc4)cc3O)n[nH]c2C(F)(F)F)cc1 | 2.52 µM |
| CNC(=O)c1c(C)oc2cc(Oc3ncnc4cc(OC)c(OC)cc34)ccc12 | > 100 µM |
| O=C(CSc1nc2c(n1Nc1ccccc1)-c1ccccc1SC2)Nc1nc(-c2ccc(Cl)cc2)cs1 | 6.42 µM |
| COc1ccc(C(=O)C(CN(C)C)CN(C)C)cc1 | 3.14 µM |
| COc1cc(/C=C/c2cc(/C=C/c3ccc(O)c(OC)c3)n(C(=O)c3ccc(Cl)cc3)n2)ccc1O | 2.8 µM |
| COc1ccc(Nc2nc3cc(N)cc(N)c3nc2-c2ccccc2)cc1 | 13.9 µM |
| CCOC(=O)c1cc(C(=O)c2ccc(OC)cc2)n2ccc(/C=C/c3cc[n+](CC(=O)c4ccc(OC)cc4)cc3)cc12 | 2.02 µM |
| CN[C@H]1CN(c2ccc3c(=O)c(C(=O)O)cn(-c4nccs4)c3n2)C[C@@H]1OC | 0.457 µM |
| CC(=O)O[C@@H]1C2CCC3C(CC[C@@]4(C)C3CC[C@@H]4C(C)N(C)C)[C@@]2(C)CC[C@@H]1NC(=O)C=C(C)C (some centres undefined) | 4.64 µM |
